assay: Oral bioavailability in rat; format: ADME, organism-based; conditions: in vivo
# reported bioavailability; entries follow

Look over these answered cases.
compound	bioavailability
Oc1c2c(nc3ccccc13)C(c1ccc3c(c1)CCO3)N(c1ncc(-c3ccccn3)cn1)C2 (stereo not given)	31.3%
Cc1ncc(-c2cnc(N3Cc4c(nc5ccccc5c4O)C3c3ccc4c(c3)CCO4)nc2)n1C (stereo not given)	0%
Oc1c2c(nc3ccccc13)C(c1ccc3c(c1)CCO3)N(c1ccc(-c3ccccn3)cn1)C2 (stereo not given)	39%
O=c1c2c([nH]c3ccccc13)C(c1ccc3c(c1)CCO3)N(c1ccccn1)C2 (stereo not given)	38%

Query: Given the entry Oc1c2c(nc3ccccc13)C(c1ccc3c(c1)CCO3)N(c1ncccn1)C2 (stereo not given) , report its measured bioavailability.
Response: 12%
